System: K562 cell line
Experiment: DNA fragmentation, K562 leukemic cell line
Assay type: cell-based, human
Settings: 10 μM, 24 and 48 hours, FIGS. 18, 20, 21
PROPERTY NAME: DNA fragmentation

CCOC(=O)CC1c2cccn2S(=O)(=O)c2ccccc2N1C(=O)c1ccccc1 (stereo not drawn): DNA fragmentation
CCOC(=O)C1c2cccn2S(=O)(=O)c2ccccc2N1C(=O)c1cccc2ccccc12 (stereo not drawn): DNA fragmentation
CCOC(=O)CC1Nc2ccccc2S(=O)(=O)n2cccc21 (stereo not drawn): DNA fragmentation
O=C(O)CC1Nc2ccccc2S(=O)(=O)n2cccc21 (stereo not drawn): not present

Query :: What does the record list as DNA fragmentation for CCOC(=O)CC1c2cccn2S(=O)(=O)c2ccccc2N1C(=O)c1ccc(Cl)cc1 (stereo not drawn) ?
Result :: DNA fragmentation

Query :: Tell me the measured DNA fragmentation of O=S1(=O)c2ccccc2NC(CO)c2cccn21 (stereo not drawn) , please.
Result :: not present

Query :: I'd like to know its DNA fragmentation. The compound in question is O=C(O)C1Nc2ccccc2S(=O)(=O)n2cccc21 (stereo not drawn)
Result :: not present

Query :: Could you share which DNA fragmentation value was measured for CCOC(=O)C1c2cccn2S(=O)(=O)c2ccccc2N1C(=O)c1ccccc1 (stereo not drawn) ?
Result :: DNA fragmentation

Query :: // DNA fragmentation lookup, key: O=C(OC(c1ccc(Cl)cc1)C1Nc2ccccc2S(=O)(=O)n2cccc21)c1ccccc1 (stereo not drawn)
Result :: not present
